Target: Human recombinant FAP (Homo sapiens)
Sequence (Q12884 whole entry): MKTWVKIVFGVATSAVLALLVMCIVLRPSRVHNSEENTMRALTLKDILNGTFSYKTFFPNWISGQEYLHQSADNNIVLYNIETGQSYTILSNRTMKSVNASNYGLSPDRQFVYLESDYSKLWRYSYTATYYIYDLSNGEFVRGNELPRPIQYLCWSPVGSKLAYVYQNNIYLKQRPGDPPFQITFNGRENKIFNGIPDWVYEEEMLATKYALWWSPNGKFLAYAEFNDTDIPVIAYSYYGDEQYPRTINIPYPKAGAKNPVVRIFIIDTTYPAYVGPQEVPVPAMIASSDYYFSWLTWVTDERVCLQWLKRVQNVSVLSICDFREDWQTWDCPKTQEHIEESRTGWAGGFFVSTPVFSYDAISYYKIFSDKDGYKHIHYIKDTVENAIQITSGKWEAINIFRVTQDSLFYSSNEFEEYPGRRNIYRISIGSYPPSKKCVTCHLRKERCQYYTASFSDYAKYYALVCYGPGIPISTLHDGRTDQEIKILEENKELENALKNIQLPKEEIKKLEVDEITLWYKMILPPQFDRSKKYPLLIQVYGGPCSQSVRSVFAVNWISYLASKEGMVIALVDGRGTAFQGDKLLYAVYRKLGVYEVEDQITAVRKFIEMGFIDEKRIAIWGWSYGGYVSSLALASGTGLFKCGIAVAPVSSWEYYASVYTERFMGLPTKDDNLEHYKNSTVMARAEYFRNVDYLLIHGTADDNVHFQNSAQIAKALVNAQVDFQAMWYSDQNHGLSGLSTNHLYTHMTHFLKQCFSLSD
Test: FRET-based FAP protease activity assay
Format: biochemical
Set-up: purchased R&D systems 3715-SE
Conditions: pIC50 Category (Activity), FRET-based FAP protease activity assay, recombinant human FAP, 37° C.
pIC50: −log10 of the molar value. Numbered stars: 1 amine (or outer) side, 2 acyl side, 3 side chain; on linkers, the order of the positions; unused ones are H or OH. Bridge positions count the residues as written; N and C are the ends. Square brackets hold non-standard residues; d marks the D form. Peptide text beside a SMILES is read from it. * marks the point of attachment. X13 = O=C(O)CN1CCN(CC(=O)O)CCN(CC(=O)N2CCN(Cc3cc(C[*:1])cc(C[*:2])c3)CC2)CCN(CC(=O)O)CC1; Pro(trans-4-F) = O=C(O)[C@@H]1C[C@@H](F)CN1; 1Nal = N[C@@H](Cc1cccc2ccccc12)C(=O)O; mXylylene = c1cc(C[*:1])cc(C[*:2])c1; 2Thi = N[C@@H](Cc1cccs1)C(=O)O; Hexanoyl = CCCCCC(=O)*
endpointLabel: pIC50

So what's the measured pIC50 for this one? CCCCCC(=O)N[C@H]1CSCc2cc(cc(CN3CCN(C(=O)CN4CCN(CC(=O)O)CCN(CC(=O)O)CCN(CC(=O)O)CC4)CC3)c2)CSC[C@@H](C(=O)N[C@@H](CC(=O)O)C(N)=O)NC(=O)[C@H]([C@@H](C)O)NC(=O)[C@@H]2CCCN2C(=O)[C@H](Cc2ccccc2)NC(=O)[C@H](CCC(N)=O)NC(=O)[C@@H]2CCCN2C1=O [3BP-3857] (Hexanoyl-CPQFPTCD-NH2; linker 1-7 via X13)
6.10 to 7.00

So what's the measured pIC50 for this one? CCCCCC(=O)N[C@H]1CSCc2cc(cc(CN3CCN(C(=O)CN4CCN(CC(=O)O)CCN(CC(=O)O)CCN(CC(=O)O)CC4)CC3)c2)CSC[C@@H](C(=O)N[C@@H](CC(=O)O)C(N)=O)NC(=O)[C@@H]2CCCN2C(=O)[C@@H]2CCCN2C(=O)[C@H]([C@@H](C)O)NC(=O)[C@H](CCC(N)=O)NC(=O)[C@H](Cc2ccccc2)NC1=O [3BP-3855] (Hexanoyl-CFQTPPCD-NH2; linker 1-7 via X13)
< 6.00

So what's the measured pIC50 for this one? CSCC[C@H](NC(C)=O)C(=O)N[C@H]1CSCc2cccc(c2)CSC[C@@H](C(=O)N[C@@H](CC(=O)O)C(=O)N[C@@H](Cc2c[nH]cn2)C(=O)N[C@@H](Cc2ccccc2)C(=O)N[C@@H](CCCNC(=N)N)C(=O)N[C@@H](CC(=O)O)C(N)=O)NC(=O)[C@H](Cc2cccs2)NC(=O)[C@H](CCC(=O)O)NC(=O)[C@H]([C@@H](C)O)NC(=O)[C@@H]2CCCN2C(=O)[C@@H]2CCCN2C1=O [3BP-3193] (Ac-MCPPTE[2Thi]CDHFRD-NH2; linker 2-8 via mXylylene)
> 8.00

So what's the measured pIC50 for this one? CCCCCC(=O)N[C@H]1CSCc2cccc(c2)CSC[C@@H](C(N)=O)NC(=O)[C@H](Cc2ccccc2)NC(=O)[C@H](CCC(=O)O)NC(=O)[C@H]([C@@H](C)O)NC(=O)[C@@H]2C[C@@H](F)CN2C(=O)[C@@H]2CCCN2C1=O [3BP-3352] (Hexanoyl-CP[Pro(trans-4-F)]TEFC-NH2; linker 1-7 via mXylylene)
7.10 to 8.00

So what's the measured pIC50 for this one? CCCCCC(=O)N[C@H]1CSCc2cccc(c2)CSC[C@@H](C(N)=O)NC(=O)[C@H](Cc2cccc3ccccc23)NC(=O)[C@H](CCC(=O)O)NC(=O)[C@H]([C@@H](C)O)NC(=O)[C@@H]2CCCN2C(=O)[C@@H]2CCCN2C1=O [3BP-3361] (Hexanoyl-CPPTE[1Nal]C-NH2; linker 1-7 via mXylylene)
7.10 to 8.00
